experiment: Oral bioavailability in Sprague-Dawley rat at 10 mg/kg by HPLC-MS analysis
Assay type: ADME, organism-based
measurementContext: in vivo
measuredParameter: bioavailability (%)
A number alone suffices; assume %.

stdin: Hello, please tell me recorded bioavailability for this one: O=C(Cc1ccccc1)Nc1nnc(CCSCCc2nnc(NC(=O)Cc3ccccc3)s2)s1
stdout: 2

====

The molecules listed here are annotated with their Ratio IC50.
Species: Homo sapiens
experiment: Selectivity index, ratio of IC50 for recombinant human His-tagged GAB (P56-V602 residues) expressed in Escherichia coli C41(DE3)pLysS to IC50 for recombinant human His-tagged KGA (L123 to L669 residues) expressed in Escherichia coli BL21(DE3)pLysS
I only need the number, thanks.

Solved cases (2 shown):
stdin: Answer with the recorded Ratio IC50 of CCc1cc(-c2ccc(-n3c(-c4cccs4)cc(/C=C4\SC(=O)NC4=O)c3-c3cccs3)cc2)ccc1/C=C1\SC(=O)NC1=O only.
stdout: 32

stdin: Please report the measured Ratio IC50 for CCc1cc(-c2ccc(-n3c(-c4ccccc4)cc(/C=C4\SC(=O)NC4=O)c3-c3ccccc3)cc2)ccc1/C=C1\SC(=O)NC1=O
stdout: 22

Shift focus to the following entry.
stdin: Supply measured Ratio IC50 of CCc1cc(-c2ccc(-n3c(C)cc(/C=C4\SC(=O)NC4=O)c3C)cc2OC)ccc1/C=C1\SC(=O)NC1=O in your reply.
stdout: 18

====

experiment: Volume of distribution at steady state in Sprague-Dawley rat at 0.1 mg/kg, iv by HPLC-MS analysis
Format: ADME, organism-based
measurementContext: in vivo, read-out: Vdss
measuredParameter: Vd (L/kg)
Quick reminder: number only, in L/kg, skip the unit.

stdin: Tell me Vd reported for Cc1cc(/C=C2\SC(=O)NC2=O)c(C)n1-c1ccc(-c2ccc(/C=C3\SC(=O)NC3=O)cc2)cc1
stdout: 0.4

====

experiment: AUC (0 to infinity) in Sprague-Dawley rat at 0.1 mg/kg, iv by HPLC-MS analysis
Format: ADME, organism-based
Parameters: dose 0.1 mg/kg, time infinity, route intravenous
measurementContext: in vivo
measuredParameter: AUC(0-inf)
Quick note: unit goes after the number.

stdin: Item Cc1cc(/C=C2\SC(=O)NC2=O)c(C)n1-c1ccc(-c2ccc(/C=C3\SC(=O)NC3=O)cc2)cc1 : provide AUC(0-inf)
stdout: 3410 ng·h/mL

====

experiment: Oral bioavailability in Sprague-Dawley rat at 1 mg/kg by HPLC-MS analysis
Type: ADME, organism-based
measurementContext: in vivo
measuredParameter: bioavailability

stdin: Give the value of bioavailability reported for the following: Cc1cc(/C=C2\SC(=O)NC2=O)c(C)n1-c1ccc(-c2ccc(/C=C3\SC(=O)NC3=O)cc2)cc1
stdout: 1%

====

experiment: Inhibition of recombinant human His-tagged KGA S384A mutant expressed in Escherichia coli BL21(DE3)pLysS using glutamine substrate preincubated for 10 mins followed by substrate addition measured after 60 mins
Below is a list of entries, each paired with its recorded IC50 value.
Your answer should be a plain number; it is taken to be in nM.

stdin: Assign IC50 to the following record: Cc1cc(/C=C2\SC(=O)NC2=O)c(C)n1-c1ccc(-c2ccc(/C=C3\SC(=O)NC3=O)cc2)cc1
stdout: 361

stdin: Identify measured IC50 corresponding to O=C(Cc1ccccc1)Nc1nnc(CCSCCc2nnc(NC(=O)Cc3ccccc3)s2)s1
stdout: 65

stdin: Let me know recorded IC50 for Cc1cc(/C=C2\SC(=O)NC2=O)c(C)n1-c1ccc(-c2ccc(/C=C3\SC(=O)NC3=O)c(Cl)c2)cc1 , thanks.
stdout: 87

For the next question, use this molecule.
stdin: // Input: O=C1NC(=O)/C(=C/c2ccc(-c3ccc(-n4c(-c5ccccc5)cc(/C=C5\SC(=O)NC5=O)c4-c4ccccc4)cc3)cc2)S1 . Output its IC50 only.
stdout: 78

====

experiment: AUC (0 to infinity) in Sprague-Dawley rat at 10 mg/kg, po by HPLC-MS analysis
Format: ADME, organism-based
Set-up: dose 10 mg/kg, time infinity, route oral
measurementContext: in vivo
measuredParameter: AUC(0-inf)

stdin: Please look at this compound and report its AUC(0-inf): O=C(Cc1ccccc1)Nc1nnc(CCSCCc2nnc(NC(=O)Cc3ccccc3)s2)s1
stdout: 73 ng·h/mL

====

experiment: Total clearance in Sprague-Dawley rat at 0.1 mg/kg, iv by HPLC-MS analysis
Assay type: ADME, organism-based
measurementContext: in vivo
measuredParameter: clearance (mL/min/kg)
Entry rule: numbers only, all in mL/min/kg.

stdin: Please indicate clearance recorded for Cc1cc(/C=C2\SC(=O)NC2=O)c(C)n1-c1ccc(-c2ccc(/C=C3\SC(=O)NC3=O)cc2)cc1
stdout: 0.4

====

experiment: Terminal half life in Sprague-Dawley rat at 10 mg/kg, po by HPLC-MS analysis
Format: ADME, organism-based
measurementContext: in vivo, read-out: beta t1/2 (converted)
measuredParameter: half-life (h)
Respond with the bare value in h.

stdin: Query half-life for O=C(Cc1ccccc1)Nc1nnc(CCSCCc2nnc(NC(=O)Cc3ccccc3)s2)s1
stdout: 2

====

experiment: AUC (0 to infinity) in Sprague-Dawley rat at 1 mg/kg, po by HPLC-MS analysis
Format: ADME, organism-based
Parameters: dose 1 mg/kg, route oral, time infinity
measurementContext: in vivo
measuredParameter: AUC(0-inf) (ng·h/mL)
The reply should contain only the number, in ng·h/mL.

stdin: Query AUC(0-inf) for Cc1cc(/C=C2\SC(=O)NC2=O)c(C)n1-c1ccc(-c2ccc(/C=C3\SC(=O)NC3=O)cc2)cc1
stdout: 222

====

# Lookup of reported IC50 keyed by entry
assayTarget: Glutaminase kidney isoform, mitochondrial (Homo sapiens, UniProt O94925)
Sequence (O94925 whole entry): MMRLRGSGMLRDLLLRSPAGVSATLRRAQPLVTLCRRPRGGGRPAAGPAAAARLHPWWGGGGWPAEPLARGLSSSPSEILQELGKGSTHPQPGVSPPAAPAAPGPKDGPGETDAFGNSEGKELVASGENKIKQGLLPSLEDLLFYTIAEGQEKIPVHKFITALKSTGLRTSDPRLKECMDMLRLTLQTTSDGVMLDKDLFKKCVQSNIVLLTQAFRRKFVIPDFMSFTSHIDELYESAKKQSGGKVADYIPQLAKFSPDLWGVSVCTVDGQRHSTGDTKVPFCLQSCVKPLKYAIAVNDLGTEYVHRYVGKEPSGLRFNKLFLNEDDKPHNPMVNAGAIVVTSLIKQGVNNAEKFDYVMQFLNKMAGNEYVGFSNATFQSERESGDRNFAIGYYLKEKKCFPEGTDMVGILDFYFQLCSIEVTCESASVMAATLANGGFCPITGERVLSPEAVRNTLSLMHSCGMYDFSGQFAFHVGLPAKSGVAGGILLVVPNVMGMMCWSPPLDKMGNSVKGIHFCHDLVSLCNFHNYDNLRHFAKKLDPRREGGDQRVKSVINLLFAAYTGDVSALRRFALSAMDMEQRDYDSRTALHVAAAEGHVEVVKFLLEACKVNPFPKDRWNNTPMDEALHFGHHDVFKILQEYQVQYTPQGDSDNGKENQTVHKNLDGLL
experiment: Inhibition of recombinant human MCF7 cells derived His-tagged GAC (L123 to S598 residues) expressed in Escherichia coli C41(DE3)pLysS using glutamine as substrate preincubated for 10 mins followed by substrate addition measured after 60 mins by glutamate dehydrogenase coupled enzyme assay
Your answer is read as nM, so omit the unit and give the number.

stdin: Report value only: IC50, Glutaminase kidney isoform, mitochondrial (Homo sapiens, UniProt O94925), Cc1cc(/C=C2\SC(=O)NC2=O)c(C)n1-c1ccc(-c2ccc(/C=C3\SC(=O)NC3=O)c(Cl)c2)cc1
stdout: 255

stdin: Enter measured IC50, system Glutaminase kidney isoform, mitochondrial (Homo sapiens, UniProt O94925), for the compound shown: CCc1cc(-c2ccc(-n3c(C)cc(/C=C4\SC(=O)NC4=O)c3C)cc2OC)ccc1/C=C1\SC(=O)NC1=O
stdout: 177

stdin: Consider the compound O=C1NC(=O)/C(=C/c2cc(-c3cccs3)n(-c3ccc(Br)cc3)c2-c2cccs2)S1 tested on Glutaminase kidney isoform, mitochondrial (Homo sapiens, UniProt O94925); state its IC50.
stdout: 1270

stdin: Recall the reported IC50 of Cc1cc(/C=C2\SC(=O)NC2=O)c(C)n1-c1ccc(-c2ccc(/C=C3\SC(=O)NC3=O)cc2)cc1 on Glutaminase kidney isoform, mitochondrial (Homo sapiens, UniProt O94925) and write it down.
stdout: 381

====

experiment: Tmax in Sprague-Dawley rat at 10 mg/kg, po by HPLC-MS analysis
Format: ADME, organism-based
measurementContext: in vivo
measuredParameter: Tmax

stdin: Kindly indicate its recorded Tmax. Item: O=C(Cc1ccccc1)Nc1nnc(CCSCCc2nnc(NC(=O)Cc3ccccc3)s2)s1
stdout: 42 min

====

Test system: ASPC1
experiment: Growth inhibition of human Aspc-1 cells after 72 hrs by MTS assay
Type: functional, cell-based
measurementContext: ASPC1, 72 h
measuredParameter: pIC50
Note on units: pIC50 is unitless, being -log10 of a concentration expressed in mol/L.

stdin: Identify measured pIC50 corresponding to CCc1cc(-c2ccc(-n3c(-c4cccs4)cc(/C=C4\SC(=O)NC4=O)c3-c3cccs3)cc2)ccc1/C=C1\SC(=O)NC1=O
stdout: 4.61

More entries:
stdin: Entry O=C1NC(=O)/C(=C/c2ccc(-c3ccc(-n4c(-c5ccccc5)cc(/C=C5\SC(=O)NC5=O)c4-c4ccccc4)cc3)cc2)S1 needs its pIC50 filled in; supply it.
stdout: 5.00

stdin: Return pIC50 for the following molecule: CCc1cc(-c2ccc(-n3c(-c4ccccc4)cc(/C=C4\SC(=O)NC4=O)c3-c3ccccc3)cc2)ccc1/C=C1\SC(=O)NC1=O
stdout: 5.06

stdin: Please supply the value of reported pIC50 for the item CCc1cc(-c2ccc(-n3c(C)cc(/C=C4\SC(=O)NC4=O)c3C)cc2)ccc1/C=C1\SC(=O)NC1=O
stdout: 4.90

stdin: Tell me pIC50 reported for O=C(Cc1ccccc1)Nc1nnc(CCSCCc2nnc(NC(=O)Cc3ccccc3)s2)s1
stdout: 4.99

stdin: Report pIC50, nothing else, for this molecule: COc1cc(-n2c(-c3cccs3)cc(/C=C3\SC(=O)NC3=O)c2-c2cccs2)ccc1-c1ccc(/C=C2\SC(=O)NC2=O)cc1
stdout: 4.92

stdin: Fill in pIC50 for record O=C1NC(=O)/C(=C/c2ccc(-c3ccc(-n4c(-c5cccs5)cc(/C=C5\SC(=O)NC5=O)c4-c4cccs4)cc3)cc2)S1
stdout: 4.83

stdin: Quote pIC50 reported for COc1cc(-n2c(-c3ccccc3)cc(/C=C3\SC(=O)NC3=O)c2-c2ccccc2)ccc1-c1ccc(/C=C2\SC(=O)NC2=O)cc1 please.
stdout: 4.92

stdin: // fetch pIC50 given entry Cc1cc(/C=C2\SC(=O)NC2=O)c(C)n1-c1ccc(-c2ccc(/C=C3\SC(=O)NC3=O)cc2)cc1
stdout: 4.46

Every entry's value here was drawn from ChEMBL document CHEMBL4011632.
